Species: Rattus norvegicus
Method Notes: DrugMatrix - Regimen: Daily Repeat
Assay type: toxicity, organism-based, Sprague-Dawley
Design: regimen Daily Repeat, gender Male, age 6-8 weeks
Condition Set: in vivo, po, 0 mg/kg, 120 h, tissue Plasma, route oral GAVAGE, dose level Control, time 5 day, vehicle .5 % CMC
Observed Property: CREATINE PHOSPHOKINASE (u/L)
Reply with just the number (in u/L).

{"Compound": "O=[N+]([O-])c1ccccc1", "Observed Property": "CREATINE PHOSPHOKINASE", "Observed Measurement": 211.33}

Recorded result, C#C[C@]1(O)CC[C@H]2[C@@H]3CCc4cc(OC)ccc4[C@H]3CC[C@@]21C , CREATINE PHOSPHOKINASE: 273.5

Recorded result, C[C@]1(Cn2ccnn2)[C@H](C(=O)O)N2C(=O)C[C@H]2S1(=O)=O , CREATINE PHOSPHOKINASE: 231.83

Recorded result, CC(C)[C@H]1CC[C@H](C(=O)N[C@H](Cc2ccccc2)C(=O)O)CC1 [NATEGLINIDE] , CREATINE PHOSPHOKINASE: 481.83

Recorded result, CN1CCC(=C2c3ccccc3C=Cc3ccccc32)CC1 , CREATINE PHOSPHOKINASE: 142.5

====

Attribute: ALANINE AMINOTRANSFERASE
Species on record: Rattus norvegicus
Method Notes: DrugMatrix - Regimen: Daily Repeat
Format: toxicity, organism-based, Sprague-Dawley
Set-up: regimen Daily Repeat, gender Male, age 6-8 weeks
Condition Set: in vivo, po, 0 mg/kg, 72 h, tissue Plasma, route oral GAVAGE, dose level Control, time 3 day, […]
Reply with just the number (in u/L).

Consider the following illustrative entries.
{"Compound": "CC(C)(Oc1ccc(C2CCCc3ccccc32)cc1)C(=O)O (centres undefined) [NAFENOPIN]", "ALANINE AMINOTRANSFERASE [u/L]": 69.67}
{"Compound": "Cc1cccc(Nc2ccncc2S(=O)(=O)NC(=O)NC(C)C)c1 [TORSEMIDE]", "ALANINE AMINOTRANSFERASE [u/L]": 72.83}

Recorded result, CCOC(=O)C(C)(C)Oc1ccc(Cl)cc1 [CLOFIBRATE] , ALANINE AMINOTRANSFERASE: 63.67

Recorded result, O=C(O)Cc1ccccc1Nc1c(Cl)cccc1Cl [DICLOFENAC] , ALANINE AMINOTRANSFERASE: 77.67

====

Species: Rattus norvegicus
Method Notes: DrugMatrix - Regimen: Daily Repeat
Format: toxicity, organism-based, Sprague-Dawley
Design: regimen Daily Repeat, gender Male, age 6-8 weeks
Condition Set: in vivo, po, 0 mg/kg, 120 h, tissue Blood, route oral GAVAGE, dose level Control, time 5 day, vehicle .5 % CMC
Attribute: ABSOLUTE LYMPHOCYTE
Reply with just the number (in CELLS/uL).

Consider the following illustrative entries.
{"Molecule": "CO[C@H]1/C=C/O[C@@]2(C)Oc3c(C)c(O)c4c(c3C2=O)C2=NC3(CCN(CC(C)C)CC3)NC2=C(NC(=O)/C(C)=C\\C=C\\[C@H](C)[C@H](O)[C@@H](C)[C@@H](O)[C@@H](C)[C@H](OC(C)=O)[C@@H]1C)C4=O", "ABSOLUTE LYMPHOCYTE, CELLS/uL": 14943.67}
{"Molecule": "OC(CCN1CCCCC1)(c1ccccc1)C1CCCCC1 (stereo unspecified)", "ABSOLUTE LYMPHOCYTE, CELLS/uL": 13871.67}
{"Molecule": "C[C@]1(Cn2ccnn2)[C@H](C(=O)O)N2C(=O)C[C@H]2S1(=O)=O", "ABSOLUTE LYMPHOCYTE, CELLS/uL": 16020.5}

Recorded result, Clc1ccc2c(c1)C(N1CCNCC1)=Nc1ccccc1O2 , ABSOLUTE LYMPHOCYTE: 14614

Recorded result, CC(=O)CC(c1ccccc1)c1c(O)c2ccccc2oc1=O (stereo unspecified) , ABSOLUTE LYMPHOCYTE: 12549.5

Recorded result, CN1C(=O)COc2c(C(=O)NC3CN4CCC3CC4)cc(Cl)cc21 (stereo unspecified) , ABSOLUTE LYMPHOCYTE: 14327.83

====

Organism: Rattus norvegicus
Method Notes: DrugMatrix - Regimen: Daily Repeat
Type: toxicity, organism-based, Sprague-Dawley
Set-up: regimen Daily Repeat, gender Male, age 6-8 weeks
Condition Set: in vivo, po, 0 mg/kg, 120 h, tissue Blood, route oral GAVAGE, dose level Control, time 5 day, […]
Attribute: MEAN CORPUSCULAR VOLUME
Reply with just the number (in fL).

Consider the following illustrative entries.
{"Molecule": "O=NN(CCCl)C(=O)NCCCl [CARMUSTINE]", "MEAN CORPUSCULAR VOLUME, fL": 62.87}
{"Molecule": "Clc1ccc(Cl)cc1 [1,4-DICHLOROBENZENE]", "MEAN CORPUSCULAR VOLUME, fL": 70.13}
{"Molecule": "CCOC(=O)C1=C(C)NC(C)=C(C(=O)OC)C1c1cccc([N+](=O)[O-])c1 (configuration not stated) [NITRENDIPINE]", "MEAN CORPUSCULAR VOLUME, fL": 63.08}
{"Molecule": "CC/C(=C(/CC)c1ccc(O)cc1)c1ccc(O)cc1 [DIETHYLSTILBESTROL]", "MEAN CORPUSCULAR VOLUME, fL": 63.32}
{"Molecule": "COc1ccc2[nH]c([S+]([O-])Cc3ncc(C)c(OC)c3C)nc2c1 (configuration not stated) [OMEPRAZOLE]", "MEAN CORPUSCULAR VOLUME, fL": 62.48}
{"Molecule": "COCCOC(=O)C1=C(C)NC(C)=C(C(=O)OC(C)C)C1c1cccc([N+](=O)[O-])c1 (configuration not stated) [NIMODIPINE]", "MEAN CORPUSCULAR VOLUME, fL": 63.08}

Next:
Recorded result, CCCCCCCCc1ccc(O)cc1 [4-OCTYLPHENOL] , MEAN CORPUSCULAR VOLUME: 63.52

====

Attribute: TOTAL PROTEIN
Organism: Rattus norvegicus
Method Notes: DrugMatrix - Regimen: Daily Repeat
Format: toxicity, organism-based, Sprague-Dawley
Set-up: regimen Daily Repeat, gender Male, age 6-8 weeks
Condition Set: in vivo, po, 0 mg/kg, 72 h, tissue Plasma, route oral GAVAGE, dose level Control, time 3 day, vehicle .5 % CMC
Reply with just the number (in G/DL).

{"Molecule": "OC(CCN1CCCCC1)(c1ccccc1)C1CCCCC1 (stereo not drawn) [TRIHEXYPHENIDYL]", "Unit Annotation": "G/DL", "TOTAL PROTEIN": 5.95}
{"Molecule": "CC(=O)CC(c1ccccc1)c1c(O)c2ccccc2oc1=O (stereo not drawn) [WARFARIN]", "Unit Annotation": "G/DL", "TOTAL PROTEIN": 5.98}
{"Molecule": "C[C@]1(Cn2ccnn2)[C@H](C(=O)O)N2C(=O)C[C@H]2S1(=O)=O [TAZOBACTAM]", "Unit Annotation": "G/DL", "TOTAL PROTEIN": 5.98}
{"Molecule": "CN1CCC(=C2c3ccccc3C=Cc3ccccc32)CC1 [CYPROHEPTADINE]", "Unit Annotation": "G/DL", "TOTAL PROTEIN": 5.93}
{"Molecule": "O=[N+]([O-])c1ccccc1 [NITROBENZENE]", "Unit Annotation": "G/DL", "TOTAL PROTEIN": 6.1}
{"Molecule": "CC(C)[C@H]1CC[C@H](C(=O)N[C@H](Cc2ccccc2)C(=O)O)CC1 [NATEGLINIDE]", "Unit Annotation": "G/DL", "TOTAL PROTEIN": 5.93}
{"Molecule": "C[C@](O)(CS(=O)(=O)c1ccc(F)cc1)C(=O)Nc1ccc(C#N)c(C(F)(F)F)c1 [(R)-BICALUTAMIDE]", "Unit Annotation": "G/DL", "TOTAL PROTEIN": 5.9}

Next:
Recorded result, CN1C(=O)COc2c(C(=O)NC3CN4CCC3CC4)cc(Cl)cc21 (stereo not drawn) [AZASETRON] , TOTAL PROTEIN: 5.82

====

Species on record: Rattus norvegicus
Method Notes: DrugMatrix - Regimen: Daily Repeat
Type: toxicity, organism-based, Sprague-Dawley
Design: regimen Daily Repeat, gender Male, age 6-8 weeks
Condition Set: in vivo, po, 0 mg/kg, 120 h, tissue Blood, route oral GAVAGE, dose level Control, time 5 day, vehicle .5 % CMC
Attribute: ERYTHROCYTE COUNT
Reply with just the number (in x10E6/uL).

{"Compound": "C#C[C@]1(O)CC[C@H]2[C@@H]3CCc4cc(OC)ccc4[C@H]3CC[C@@]21C", "Unit Annotation": "x10E6/uL", "Observed Measurement": 5.71}

Recorded result, C[C@](O)(CS(=O)(=O)c1ccc(F)cc1)C(=O)Nc1ccc(C#N)c(C(F)(F)F)c1 [(R)-BICALUTAMIDE] , ERYTHROCYTE COUNT: 5.52

Recorded result, N=C(N)NC(=O)c1nc(Cl)c(N)nc1N [AMILORIDE] , ERYTHROCYTE COUNT: 6.05

Recorded result, O=C1CCC(N2C(=O)c3ccccc3C2=O)C(=O)N1 (centres undefined) [THALIDOMIDE] , ERYTHROCYTE COUNT: 6.96

Taken from ChEMBL document CHEMBL3885881.
